- tested.on: human GST-HPK1 (1-346) (Homo sapiens, UniProt Q92918)
- Sequence (Q92918 1-346): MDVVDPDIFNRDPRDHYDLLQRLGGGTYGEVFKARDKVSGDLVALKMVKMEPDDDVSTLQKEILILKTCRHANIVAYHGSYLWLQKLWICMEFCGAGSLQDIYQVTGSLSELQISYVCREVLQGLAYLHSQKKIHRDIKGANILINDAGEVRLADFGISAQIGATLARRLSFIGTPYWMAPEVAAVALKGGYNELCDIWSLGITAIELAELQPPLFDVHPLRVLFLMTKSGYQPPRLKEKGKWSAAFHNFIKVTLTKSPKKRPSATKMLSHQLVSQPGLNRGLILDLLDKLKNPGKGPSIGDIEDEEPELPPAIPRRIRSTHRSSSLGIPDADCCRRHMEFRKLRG
pIC50: −log10 of the molar value.
Reported values of pIC50 for individual entries

| compound | pIC50 |
| --- | --- |
| CN1CCN(c2ccc(Nc3nc(N4OCC[C@H]4c4ccccc4)c4sccc4n3)cc2)CC1 [Example 59] | < 6.30 |
| COc1ccc2c(c1Nc1nc(N3OCC[C@H]3c3ccccc3)c3cc[nH]c3n1)CCN(C)C2 [Example 114] | < 6.30 |
| COc1cc(Nc2nc(N3N=CCC3c3ccccc3)c3sccc3n2)ccc1N1CCC(N2CCN(C)CC2)CC1 (stereo not drawn) [Example 8] | < 6.30 |
| CN(C)CCCn1cc(Nc2nc(N3N=CCC3c3ccccc3)c3sccc3n2)cn1 (stereo not drawn) [Example 26] | < 6.30 |
| CN1CCN(c2ccc(Nc3nc(N4N=CCC4c4ccccc4)c4sccc4n3)cc2)CC1 (stereo not drawn) [Example 1] | < 6.30 |
| OCCN1CC[C@@H](Oc2cc(Nc3nc(N4OCC[C@H]4c4ccccc4)c4sccc4n3)cc(C3CC3)c2)C1 [Example 65] | < 6.30 |
| COc1cc(N2CCN(C)CC2)ccc1Nc1nc(N2OCC[C@H]2c2ccccc2)c2cc[nH]c2n1 [Example 80] | < 6.30 |
| CC(=O)N1CCc2cc(Nc3nc(N4OCC[C@H]4c4ccccc4)c4cc[nH]c4n3)ccc2C1 [Example 112] | < 6.30 |
| COc1cc(Nc2nc(N3N=CCC3c3ccccc3)c3sccc3n2)cc(C(=O)N2CCN(CCO)CC2)c1 (stereo not drawn) [Example 15] | < 6.30 |
| CN1CCc2ccc(Nc3nc(N4OCC[C@H]4c4ccccc4)c4cc[nH]c4n3)cc2C1 [Example 105] | ≤ 6.60 |
| COc1cc(N2CCN(C)CC2)ccc1Nc1nc(N2N=CCC2c2ccccc2)c2sccc2n1 (stereo not drawn) [Example 6] | < 6.30 |
| c1ccc([C@@H]2CCON2c2nc(Nc3ccc4c(c3)CNCC4)nc3[nH]ccc23)cc1 [Example 104] | ≤ 6.60 |
| Cc1cc(Nc2nc(N3OCC[C@H]3c3ccccc3)c3cc[nH]c3n2)cc(C)c1OCCCN1CCN(C)CC1 [Example 102] | ≤ 6.60 |
| CN1CCN(c2ccc(Nc3nc(N4OCC[C@H]4c4cccs4)c4cc[nH]c4n3)cc2)CC1 [Example 77] | ≤ 6.60 |
| CN(C)[C@@H]1CCN(c2cccc(Nc3nc(N4OCC[C@H]4c4ccccc4)c4cc[nH]c4n3)c2)C1 [Example 100] | < 6.30 |
